The origin of these recorded values is patent US11739078B2.

Target or system MAP4K4 (h) (Homo sapiens (Human)); recorded quantity IC50.
For clarity, give the value followed by its unit.

Use these answered entries as a reference point.
- SMILES CODE: "Cc1ccccc1NC(=O)c1ccc(-c2c(-c3ccc(F)cc3)ncn2C2CCCC2)o1"
  IC50: "115 nM"
- SMILES CODE: "O=C(Nc1ccccc1Cl)c1ccc(-c2c(-c3ccc(F)cc3)ncn2C2CCCC2)o1"
  IC50: "10.9 nM"
- SMILES CODE: "CSc1cccc(NC(=O)c2ccc(-c3c(-c4ccc(F)cc4)ncn3C3CCCC3)o2)c1"
  IC50: "326 nM"

q: Supply reported IC50 belonging to this compound: COc1ccc(NC(=O)c2ccc(-c3c(-c4ccc(F)cc4)ncn3C3CCCC3)o2)c(OC)c1
a: 4.05 nM

###

IC50 values for the compounds below.
Molecular target: TNIK (Homo sapiens (Human), UniProt Q9UKE5)
Sequence (Q9UKE5 whole entry): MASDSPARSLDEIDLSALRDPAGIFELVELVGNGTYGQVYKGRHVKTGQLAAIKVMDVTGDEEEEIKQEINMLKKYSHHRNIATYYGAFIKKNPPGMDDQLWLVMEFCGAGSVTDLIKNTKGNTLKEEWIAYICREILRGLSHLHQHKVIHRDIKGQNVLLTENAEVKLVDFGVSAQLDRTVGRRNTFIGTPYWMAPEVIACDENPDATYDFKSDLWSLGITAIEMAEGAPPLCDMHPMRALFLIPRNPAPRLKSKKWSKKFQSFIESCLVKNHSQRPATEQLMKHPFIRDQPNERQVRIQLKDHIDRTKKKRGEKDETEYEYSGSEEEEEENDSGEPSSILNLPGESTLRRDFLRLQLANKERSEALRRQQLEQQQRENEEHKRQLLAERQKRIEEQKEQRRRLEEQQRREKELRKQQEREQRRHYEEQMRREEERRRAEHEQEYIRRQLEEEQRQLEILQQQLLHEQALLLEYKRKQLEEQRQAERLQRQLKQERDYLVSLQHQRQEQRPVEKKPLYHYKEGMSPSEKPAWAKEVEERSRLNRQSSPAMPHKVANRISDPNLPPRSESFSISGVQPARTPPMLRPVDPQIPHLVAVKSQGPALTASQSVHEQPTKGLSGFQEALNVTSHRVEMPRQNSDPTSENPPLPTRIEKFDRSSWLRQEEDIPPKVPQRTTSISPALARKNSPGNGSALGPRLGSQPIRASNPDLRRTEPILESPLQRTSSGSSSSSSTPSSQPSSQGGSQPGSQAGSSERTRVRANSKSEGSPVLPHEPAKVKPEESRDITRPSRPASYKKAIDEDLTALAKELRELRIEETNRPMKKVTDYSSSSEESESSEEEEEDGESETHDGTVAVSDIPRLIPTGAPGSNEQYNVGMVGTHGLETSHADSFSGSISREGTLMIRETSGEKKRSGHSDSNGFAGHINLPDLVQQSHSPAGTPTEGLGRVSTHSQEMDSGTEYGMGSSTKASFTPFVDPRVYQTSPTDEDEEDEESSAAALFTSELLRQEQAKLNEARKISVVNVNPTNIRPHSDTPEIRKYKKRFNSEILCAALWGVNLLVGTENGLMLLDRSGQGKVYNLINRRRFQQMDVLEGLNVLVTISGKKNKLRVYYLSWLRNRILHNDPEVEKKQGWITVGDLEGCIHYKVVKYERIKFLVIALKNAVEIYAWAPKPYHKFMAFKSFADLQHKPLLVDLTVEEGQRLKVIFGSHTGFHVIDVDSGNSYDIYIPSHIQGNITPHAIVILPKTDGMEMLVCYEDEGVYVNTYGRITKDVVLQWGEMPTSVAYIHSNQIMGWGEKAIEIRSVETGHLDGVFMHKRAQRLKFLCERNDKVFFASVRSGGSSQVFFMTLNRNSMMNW
Assay: TNIK enzymatic assay (radiometric kinase inhibition)
Format: biochemical
Conditions: read-out: TNIK_IC50
Quick note: give the figure in nM, leave out the unit.

- COMPOUND: "COc1cnccc1NC(=O)c1ccc(-c2c(-c3ccc(F)cc3)ncn2CC2CCOC2)o1 (centres unmarked) [Compound A-37]"
  OUTPUT UNIT: "nM"
  IC50: 26.4
- COMPOUND: "COc1ccc(NC(=O)c2ccc(-c3c(-c4ccc(F)cc4)ncn3C3CCCC3)o2)c(OC)c1 [Compound 18]"
  OUTPUT UNIT: "nM"
  IC50: 2.33
- COMPOUND: "COc1ccc(NC(=O)c2ccc(-c3c(-c4ccc(C)cc4)ncn3C3CCCCC3)o2)cc1 [Compound 5]"
  OUTPUT UNIT: "nM"
  IC50: 2410
- COMPOUND: "O=C(Nc1cccc(F)c1)c1ccc(-c2c(-c3ccc(F)cc3)ncn2C2CCCCC2)o1 [Compound 63]"
  OUTPUT UNIT: "nM"
  IC50: 108
- COMPOUND: "Cc1ccc(NC(=O)c2ccc(-c3c(-c4ccc(F)cc4)ncn3C3CCCCC3)o2)cc1C [Compound 69]"
  OUTPUT UNIT: "nM"
  IC50: 90

q: Under TNIK (Homo sapiens (Human), UniProt Q9UKE5): report IC50 of Cc1ccc(NC(=O)c2ccc(-c3c(-c4ccc(F)cc4)ncn3C3CCCCC3)o2)cc1Cl [Compound 66] .
a: 531

q: Under TNIK (Homo sapiens (Human), UniProt Q9UKE5): report IC50 of COc1cc(NC(=O)c2ccc(-c3c(-c4ccc(C)cc4)ncn3C3CCCCC3)o2)cc(OC)c1 [Compound 6] .
a: 9730

q: Under TNIK (Homo sapiens (Human), UniProt Q9UKE5): report IC50 of O=C(Nc1ccc(F)cc1F)c1ccc(-c2c(-c3ccc(F)cc3)ncn2C2CCCCC2)o1 [Compound 57] .
a: 38

###

Biological target: TNIK (Homo sapiens (Human))
Experiment: TNIK enzymatic assay (radiometric kinase inhibition)
Assay type: biochemical
Details: read-out: TNIK_IC50
MEASUREMENT NAME: pIC50
Scale for pIC50: -log10 of concentration given in mol/L; no unit attached.

Use these answered entries as a reference point.
- SMILES CODE: "O=C(Nc1cccc(F)c1)c1ccc(-c2c(-c3ccc(F)cc3)ncn2C2CCCC2)o1"
  NUMBER: 7.23
- SMILES CODE: "Cc1ccc(C)c(NC(=O)c2ccc(-c3c(-c4ccc(F)cc4)ncn3C3CCCC3)o2)c1"
  NUMBER: 6.87

q: Supply reported pIC50 belonging to this compound: O=C(Nc1ccccc1F)c1ccc(-c2c(-c3ccc(F)cc3)ncn2C2CCCCC2)o1
a: 7.60

###

Target: TNIK (Homo sapiens (Human), UniProt Q9UKE5)
Test: TNIK enzymatic assay (radiometric kinase inhibition)
Type: biochemical
Details: read-out: TNIK_IC50
pIC50: −log10 of the molar value.
Label satisfied when pIC50 is at or above 7; anything below gets not satisfied.

Past entries and their recorded results:
- SMILES CODE: "CC(C)c1ccc(NC(=O)c2ccc(-c3c(-c4ccc(F)cc4)ncn3C3CCCC3)o2)cc1"
  CLASS LABEL: "satisfied"
- SMILES CODE: "Cc1ccc(Cl)cc1NC(=O)c1ccc(-c2c(-c3ccc(F)cc3)ncn2C2CCCC2)o1"
  CLASS LABEL: "satisfied"
- SMILES CODE: "Cc1cc(C)c(NC(=O)c2ccc(-c3c(-c4ccc(F)cc4)ncn3C3CCCC3)o2)c(C)c1"
  CLASS LABEL: "not satisfied"
- SMILES CODE: "O=C(Nc1ccc(Cl)cc1F)c1ccc(-c2c(-c3ccc(F)cc3)ncn2C2CCCCC2)o1"
  CLASS LABEL: "satisfied"
- SMILES CODE: "COc1ccc(NC(=O)c2ccc(-c3c(-c4ccc(F)cc4)ncn3C3CCCC3)o2)cc1Cl"
  CLASS LABEL: "not satisfied"

Here's the next entry for you.
q: Record Cc1ccc(-c2ncn(C3CCCCC3)c2-c2ccc(C(=O)Nc3ccc(F)cc3)o2)cc1 ; criterion: pIC50 no lower than 7. Met?
a: not satisfied

###

Target: TNIK (Homo sapiens (Human), UniProt Q9UKE5)
Assay: TNIK enzymatic assay (radiometric kinase inhibition)
Format: biochemical
Details: read-out: TNIK_IC50
MEASUREMENT NAME: pIC50
Scale for pIC50: -log10 of concentration given in mol/L; no unit attached.

Use these answered entries as a reference point.
- COMPOUND: "O=C(Nc1ccncc1F)c1ccc(-c2c(-c3ccc(F)cc3)ncn2[C@@H]2CC[C@H](O)C2)o1 (racemic) [Compound A-63]"
  pIC50: 8.03
- COMPOUND: "Cc1cccc(NC(=O)c2ccc(-c3c(-c4ccc(F)cc4)ncn3C3CCCCC3)o2)c1C"
  pIC50: 6.25
- COMPOUND: "O=C(Nc1ccccc1Cl)c1ccc(-c2c(-c3ccc(F)cc3)ncn2C2CCCC2)o1"
  pIC50: 7.82
- COMPOUND: "COc1ccccc1NC(=O)c1ccc(-c2c(-c3ccc(F)cc3)ncn2C2CCCC2)o1"
  pIC50: 8.41
- COMPOUND: "CC(=O)c1cccc(NC(=O)c2ccc(-c3c(-c4ccc(F)cc4)ncn3C3CCCCC3)o2)c1"
  pIC50: 6.82
- COMPOUND: "O=C(Nc1ccc(F)cc1F)c1ccc(-c2c(-c3ccc(F)cc3)ncn2C2CCCC2)o1"
  pIC50: 7.52
- COMPOUND: "COc1ccc(C)cc1NC(=O)c1ccc(-c2c(-c3ccc(F)cc3)ncn2C2CCCCC2)o1"
  pIC50: 7.57

Now look at this entry.
q: Supply reported pIC50 belonging to this compound: CCc1ccc(NC(=O)c2ccc(-c3c(-c4ccc(F)cc4)ncn3C3CCCC3)o2)cc1
a: 7.26

###

IC50 values for the compounds below.
Target: TNIK (Homo sapiens (Human))
Experiment: TNIK enzymatic assay (radiometric kinase inhibition)
Format: biochemical
Details: read-out: TNIK_IC50
Quick note: give the figure in nM, leave out the unit.

- COMPOUND: "Cc1ccccc1NC(=O)c1ccc(-c2c(-c3ccc(F)cc3)ncn2C2CCCC2)o1"
  OUTPUT UNIT: "nM"
  IC50: 62
- COMPOUND: "CCOc1ccc(NC(=O)c2ccc(-c3c(-c4ccc(F)cc4)ncn3C3CCCCC3)o2)cc1"
  OUTPUT UNIT: "nM"
  IC50: 62
- COMPOUND: "O=C(Nc1ccccc1F)c1ccc(-c2c(-c3ccncc3)ncn2C2CCCC2)o1"
  OUTPUT UNIT: "nM"
  IC50: 136
- COMPOUND: "O=C(Nc1ccc(Cl)cc1F)c1ccc(-c2c(-c3ccc(F)cc3)ncn2C2CCCC2)o1"
  OUTPUT UNIT: "nM"
  IC50: 19

q: Supply reported IC50 belonging to this compound: CCOc1ccc(NC(=O)c2ccc(-c3c(-c4ccc(F)cc4)ncn3C3CCCC3)o2)cc1
a: 37

q: Supply reported IC50 belonging to this compound: O=C(Nc1ccncc1F)c1ccc(-c2c(-c3ccc(F)cc3)ncn2[C@@H]2CC[C@H](O)C2)o1 (racemic) [Compound A-62]
a: 93

###

Target: UniProt Q9UKE5
Experiment: TNIK enzymatic assay (radiometric kinase inhibition)
Assay type: biochemical
Conditions: TNIK enzymatic assay, Table 1; read-out: IC50
MEASUREMENT NAME: IC50

q: Supply reported IC50 belonging to this compound: COC(=O)c1ccccc1NC(=O)c1ccc(-c2c(-c3ccc(F)cc3)ncn2C2CCCC2)o1 [Compound 27]
a: < 10 nM

q: Supply reported IC50 belonging to this compound: O=C(Nc1ccccc1Br)c1ccc(-c2c(-c3ccc(F)cc3)ncn2C2CCCC2)o1 [Compound 13]
a: < 10 nM

q: Supply reported IC50 belonging to this compound: O=C(Nc1ccccc1Cl)c1ccc(-c2c(-c3ccc(F)cc3)ncn2C2CCCC2)o1 [Compound 14]
a: < 10 nM

###

Biological target: UniProt:Q9UKE5
Test: TNIK enzymatic assay (radiometric kinase inhibition)
Type: biochemical
Settings: read-out: TNIK_IC50
MEASUREMENT NAME: IC50 (nM)
Quick note: give the figure in nM, leave out the unit.

q: Supply reported IC50 belonging to this compound: O=C(Nc1c(O)cncc1F)c1ccc(-c2c(-c3ccc(F)cc3)ncn2C2COCC2F)o1 (stereo not shown)
a: 1340

q: Supply reported IC50 belonging to this compound: O=C(Nc1ccc(F)c(F)c1)c1ccc(-c2c(-c3ccc(F)cc3)ncn2C2CCCCC2)o1
a: 191
